Tested on: HEK293
PROCEDURE SUMMARY: Antiproliferative activity against HEK293 cells by MTT assay
Format: cell-based
CONDITION SUMMARY: Homo sapiens
pIC50: −log10 of the molar value.

COMPOUND SMILES: COC(=O)CC[C@@H](C)[C@H]1CC[C@H]2[C@@H]3[C@H](O)C[C@@H]4C[C@@H](NC(=O)CCNC(=O)CCNC(=O)CCNC(=O)CCN)CC[C@]4(C)[C@H]3C[C@H](O)[C@]12C
CENSOR SYMBOL: =
pIC50: 3.15

COMPOUND SMILES: COC(=O)CC[C@@H](C)[C@H]1CC[C@H]2[C@@H]3[C@H](O)C[C@@H]4C[C@@H](NC(=O)CCNC(=O)CCNC(=O)CCNC(=O)CCNC(=O)OC(C)(C)C)CC[C@]4(C)[C@H]3C[C@H](O)[C@]12C
CENSOR SYMBOL: <
pIC50: 3.00

COMPOUND SMILES: CC(=O)OCCC[C@@H](C)[C@H]1CC[C@H]2[C@@H]3[C@H](OC(C)=O)C[C@@H]4C[C@@H](NC(=O)CCNC(=O)CCNC(=O)CCNC(=O)CCNC(=O)OC(C)(C)C)CC[C@]4(C)[C@H]3C[C@H](O)[C@]12C
CENSOR SYMBOL: =
pIC50: 4.10
